# Test system: MDA-MB-468 spheroids with HUVEC/MSC, viability
# Assay protocol: Anticancer human tumor MDA-MB-468 cell line growth inhibition [PI3K]; active = viability on the fitted dose curve at most 10% of control; inactive = the rest;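 note: spheroids exposed to agents for seven days before readout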
# Condition info: second compound 0.316 µM; first compound 3.16 µM
Your reply should match one of these outcome classes. active, inactive

Record excerpt, results attached:
Molecule	Category
C#Cc1c(F)ccc2cc(O)cc(-c3ncc4c(N5CC6CCC(C5)N6)nc(OCC56CCCN5CC(F)C6)nc4c3F)c12 (stereo not given) + CC(Nc1ccc2c(c1)OCCn1cc(N3C(=O)OCC3C(F)F)nc1-2)C(N)=O	inactive
CCCS(=O)(=O)Nc1ccc(F)c(C(=O)c2c[nH]c3ncc(-c4ccc(Cl)cc4)cc23)c1F + COc1c(OCCCN2CCOCC2)ccc2c3n(c(=NC(=O)c4cnc(N)nc4)nc12)CCN3	inactive
CNC(=O)c1ccc(N2C(=S)N(c3ccc(C#N)c(C(F)(F)F)c3)C(=O)C2(C)C)cc1F + Cc1nc(NC(=O)N2CCCC2C(N)=O)sc1-c1ccnc(C(C)(C)C(F)(F)F)c1	inactive

(Q) Test call for this molecule, please: Cn1ncc(Cl)c1-c1cc(C(=O)NC(CN)Cc2cccc(F)c2)sc1Cl (stereo not given) + CC(Nc1ccc2c(c1)OCCn1cc(N3C(=O)OCC3C(F)F)nc1-2)C(N)=O
(A) inactive

(Q) Test call for this molecule, please: CC1(C)CCC(Nc2ncc(C(F)(F)F)c(-c3c[nH]c4c(P(C)(C)=O)c(C#N)ccc34)n2)CN1 (stereo not given) + CC(Nc1ncnc2nc[nH]c12)c1cc2cccc(Cl)c2c(=O)n1-c1ccccc1
(A) active

(Q) Test call for this molecule, please: CC1(C)CCC(CN2CCN(c3ccc(C(=O)NS(=O)(=O)c4ccc(NCC5CCOCC5)c([N+](=O)[O-])c4)c(Oc4cnc5[nH]ccc5c4)c3)CC2)=C(c2ccc(Cl)cc2)C1 + CC(Nc1ccc2c(c1)OCCn1cc(N3C(=O)OCC3C(F)F)nc1-2)C(N)=O
(A) inactive

(Q) Test call for this molecule, please: CNC(=O)c1ccc(N2C(=S)N(c3ccc(C#N)c(C(F)(F)F)c3)C(=O)C2(C)C)cc1F + COc1c(OCCCN2CCOCC2)ccc2c3n(c(=NC(=O)c4cnc(N)nc4)nc12)CCN3
(A) inactive

(Q) Test call for this molecule, please: CNC(=O)c1ccc(N2C(=S)N(c3ccc(C#N)c(C(F)(F)F)c3)C(=O)C2(C)C)cc1F + CC(Nc1ccc2c(c1)OCCn1cc(N3C(=O)OCC3C(F)F)nc1-2)C(N)=O
(A) inactive

(Q) Test call for this molecule, please: CCCS(=O)(=O)Nc1ccc(F)c(C(=O)c2c[nH]c3ncc(-c4ccc(Cl)cc4)cc23)c1F + Cc1nc(NC(=O)N2CCCC2C(N)=O)sc1-c1ccnc(C(C)(C)C(F)(F)F)c1
(A) inactive

(Q) Test call for this molecule, please: C#Cc1c(F)ccc2cc(O)cc(-c3ncc4c(N5CC6CCC(C5)N6)nc(OCC56CCCN5CC(F)C6)nc4c3F)c12 (stereo not given) + COc1c(OCCCN2CCOCC2)ccc2c3n(c(=NC(=O)c4cnc(N)nc4)nc12)CCN3
(A) inactive
